TESTED_ON: human glucagon receptor (human, UniProt P47871 26-477)
EXPERIMENT_NOTES: cell-based or functional assay
Starred links: 1 amine or outer side, 2 acyl side, 3 side chain; linkers in the order of their positions; H or OH if unused. Non-standard residues stand in square brackets, D forms with d. No end group written: not given here. ACPP = 2-amino-5-(3-chlorophenyl)pentanoic acid, O=C([C@H](CCCc1cccc(Cl)c1)N[*:1])[*:2]; Bip(2'-Et-4'-OMe) = CCc1cc(OC)ccc1-c1ccc(C[C@H](N)C(=O)O)cc1; Nva(5-(3,5-Me2Ph)) = Cc1cc(C)cc(CCC[C@H](N)C(=O)O)c1; 2F‑APPA = 2-amino-5-(2-fluorophenyl)pentanoic acid; αMePhe(2-F) = C[C@](N)(Cc1ccccc1F)C(=O)O; aThr = C[C@H](O)[C@H](N)C(=O)O; CNB = not defined here; Aib = CC(C)(N)C(=O)O
As shown below, each of these binders has a reported inhibition of cAMP production, 100 nM value.
Numbers only; they are read as pmol/ml/µg prt.

I would be grateful if you could share the reported inhibition of cAMP production, 100 nM for H[Aib][CNB]G[aThr][αMePhe(2-F)][aThr]SD[Bip(2'-Et-4'-OMe)][2F‑APPA] (reading uncertain; also: reduced (CH2) bond between 10 and 11) [Seq. ID. No. 192: H-Aib-(CNB)-G-T(allo)-(α-Me-2F-Phe)-T(allo)-SD-Bip(OMe)-(CH2)-(2F-APPA)] .
0

Now the same for H[Aib][CNB]GTFTSD[Bip(2'-Et-4'-OMe)][Nva(5-(3,5-Me2Ph))] (reading uncertain) [Seq. ID. No. 30: H-Aib-(CNB)-GTFTSD-Bip(OMe)-(ADMP)]
20

Now the same for H[Aib][CNB]GTFTSD[Bip(2'-Et-4'-OMe)][2F‑APPA] (reading uncertain) [Seq. ID. No. 77: H-Aib-(CNB)-GTFTSD-Bip(OMe)-(2F-APPA)]
16

Turning now to a further binder:
I would be grateful if you could share the reported inhibition of cAMP production, 100 nM for H[Aib]QGTFTSD[Bip(2'-Et-4'-OMe)][ACPP] [Seq. ID. No. 19: H-Aib-QGTFTSD-Bip(OMe)-(ACPP)] .
0
